Values from patent US20260139055A1

molecular target: canine FcRn complex (FcRn-alpha subunit and beta-microglobulin), His-tagged, biotin labeled (canine); test: SPR (Biacore), biotin-FcRn captured on SA surface, IgG flowed over, pH 6, 15 C
MEASURE_NAME: pKd
Please note pKd is a logarithmic value: minus log10 of concentration in mol/L. Answer with that number alone.

>>> reading("canine IgGB (65) mAb with mutation T286V (antibody, part only; not given: variable domains of unnamed mAb, not shown: another chain or arm of the molecule) constant: ASTTAPSVFPLAPSCGSTSGSTVALACLVSGYFPEPVTVSWNSGSLTSGVHTFPSVLQSSGLYSLSSMVTVPSSRWPSETFTCNVAHPASKTKVDKPVPKRENGRVPRPPDCPKCPAPEMLGGPSVFIFPPKPKDTLLIARTPEVTCVVVDLDPEDPEVQISWFVDGKQMQVAKTQPREEQFNGTYRVVSVLPIGHQDWLKGKQFTCKVNNKALPSPIERTISKARGQAHQPSVYVLPPSREELSKNTVSLTCLIKDFFPPDIDVEWQSNGQQEPESKYRTTPPQLDEDGSYFLYSKLSVDKSRWQRGDTFICAVMHEALHNHYTQESLSHSPGK")
8.08

Given the entry canine IgGB (65) mAb with mutation Q311H (antibody, part only; not given: variable domains of unnamed mAb, not shown: another chain or arm of the molecule) constant: ASTTAPSVFPLAPSCGSTSGSTVALACLVSGYFPEPVTVSWNSGSLTSGVHTFPSVLQSSGLYSLSSMVTVPSSRWPSETFTCNVAHPASKTKVDKPVPKRENGRVPRPPDCPKCPAPEMLGGPSVFIFPPKPKDTLLIARTPEVTCVVVDLDPEDPEVQISWFVDGKQMQTAKTQPREEQFNGTYRVVSVLPIGHHDWLKGKQFTCKVNNKALPSPIERTISKARGQAHQPSVYVLPPSREELSKNTVSLTCLIKDFFPPDIDVEWQSNGQQEPESKYRTTPPQLDEDGSYFLYSKLSVDKSRWQRGDTFICAVMHEALHNHYTQESLSHSPGK , report its measured pKd.
8.18
